target_entity: HIV-1 reverse transcriptase p66/p51 heterodimer (HIV-1 (BH10), UniProt P03366;P03366 P03366:600-1159,P03366:600-1039)
assay_details: steady-state fluorescence quenching; 50 mM Tris-HCl pH 8.0, 50 mM KCl, 10 mM MgCl2, 1 mM DTT, 25 C
measurement_context: tags: recombinant from E. coli; His-tagged and untagged preparations described, form used in the titration not specified; label: 6-FAM at primer 3' end; primer/template with 5' single-stranded template overhang
recorded_endpoint: pKd
Give only the number. pKd is defined as minus log10 of concentration in molar units.

Entry 19/36-mer DNA/DNA primer/template (HIV-1 PBS) (dsDNA) DNA 1: TCCCTGTTCGGGCGCCACT DNA 2: TGTGGAAAATCTCATGCAGTGGCGCCCGAACAGGGA , pKd reported as 7.66
